The entries below are paired with their reported protein stability index.
B1: STK38L (parent)
chain: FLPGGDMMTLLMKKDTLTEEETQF

Variants of: B1
experimentalProtocol: protein stability index of a GFP-peptide fusion (GPS, HEK-293T) (PSI 1-6); higher = more stable;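 also: lentivirally expressed fusions sorted by FACS into six bins by GFP to DsRed ratio, PSI derived from sequencing read proportions per bin multiplied by bin number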
condition: c terminus: a fixed tail appended
Write the number on its own, no unit after it.

> print(dat)
   mutant          measurementname  result
1    E19A  protein stability index    2.13
2    K13M  protein stability index    2.28
3    E19K  protein stability index    1.97
4    M12R  protein stability index    3.48
5    D15Q  protein stability index    1.66

INPUT: Provide only the value of recorded protein stability index for M12A
OUTPUT: 2.81

INPUT: Provide only the value of recorded protein stability index for T18D
OUTPUT: 2.29

INPUT: Provide only the value of recorded protein stability index for L2I
OUTPUT: 2.07

INPUT: Provide only the value of recorded protein stability index for T9L
OUTPUT: 2.32

INPUT: Provide only the value of recorded protein stability index for K14M
OUTPUT: 1.97

INPUT: Provide only the value of recorded protein stability index for L10S
OUTPUT: 4.07
